# Tested on: N. gonorrhoeae WHO K
# assay_procedure: Liquid broth MIC in Fastidious broth
# condition_context: Neisseria gonorrhoeae, read-out: Minimum Inhibitory Concentration, WHO K
I'd be grateful if you could share measured MIC for these entries.

Inquiry: So what does the record say about MIC for O=C(NCCCS(=O)(=O)N1CCN(C(=O)NC(C(=O)N[C@H]2Cc3ccc(F)c(C(=O)O)c3OB2O)c2cc(F)c(O)c(O)c2Cl)C1=O)Nc1cccc(O)c1 (some centres unmarked) [Example 277] ?
Reply text: > 64 µg/mL

Inquiry: So what does the record say about MIC for O=C(NCCS(=O)(=O)N1CCN(C(=O)NC(C(=O)N[C@H]2Cc3ccc(F)c(C(=O)O)c3OB2O)c2cc(F)c(O)c(O)c2Cl)C1=O)Nc1cccc(O)c1 (some centres unmarked) [Example 266] ?
Reply text: 16 to 32 µg/mL

Inquiry: So what does the record say about MIC for O=C(NCCCN1CCN(C(=O)N[C@@H](C(=O)N[C@H]2Cc3ccc(F)c(C(=O)O)c3OB2O)c2cc(F)c(O)c(O)c2Cl)C(=O)C1=O)c1ccncc1O [Example 296] ?
Reply text: > 64 µg/mL

Inquiry: So what does the record say about MIC for O=C(NCCCN1CCN(C(=O)N[C@@H](C(=O)N[C@H]2Cc3ccc(F)c(C(=O)O)c3OB2O)c2cc(F)c(O)c(O)c2Cl)C1=O)c1ccccc1 [Example 253] ?
Reply text: > 64 µg/mL

Inquiry: So what does the record say about MIC for O=C(NCCCN1CCN(C(=O)N[C@H](C(=O)N[C@H]2Cc3ccc(F)c(C(=O)O)c3OB2O)c2cc(F)c(O)c(O)c2Cl)C1=O)c1cccc(O)c1 [Example 254] ?
Reply text: > 64 µg/mL
